Measured values drawn from ChEMBL document CHEMBL1155414 for this set.

- Measured On: Oxytocin receptor (Homo sapiens)
- Sequence (P30559 whole entry): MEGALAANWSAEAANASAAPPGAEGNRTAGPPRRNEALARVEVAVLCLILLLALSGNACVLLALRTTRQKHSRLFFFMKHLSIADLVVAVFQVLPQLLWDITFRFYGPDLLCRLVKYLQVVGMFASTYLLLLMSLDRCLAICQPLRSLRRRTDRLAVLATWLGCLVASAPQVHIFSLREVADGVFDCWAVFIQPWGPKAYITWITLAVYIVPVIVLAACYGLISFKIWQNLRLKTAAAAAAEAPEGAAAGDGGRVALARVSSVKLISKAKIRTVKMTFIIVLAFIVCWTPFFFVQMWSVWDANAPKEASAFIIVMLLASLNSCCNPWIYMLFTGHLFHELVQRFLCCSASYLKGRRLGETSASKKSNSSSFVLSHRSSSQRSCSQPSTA
- Experiment Description: Antagonist activity at human oxytocin receptor expressed in CHO cells by beta lactamase assay
Parameter Measured: pKi
Give only the number. pKi is defined as minus log10 of concentration in molar units.

Consider the following illustrative entries.
CCN(C(=O)N1CC(Oc2cccc(F)c2C)C1)c1ccc(OC)nc1 7.86
COc1ccc(-n2c(C)nnc2N2CC(Oc3cc(F)cc(F)c3C)C2)cn1 7.38
CCN(C(=O)N1CC(Oc2ccc(F)cc2Cl)C1)c1ccc(OC)nc1 7.32
COc1ccc(N(C)C(=O)N2CC(Oc3ccc(F)cc3Cl)C2)cn1 7.17
COc1ccc(N(C)C(=O)N2CC(Oc3cccc(F)c3C)C2)cn1 6.80
CCN(C(=O)N1CC(Oc2ccc(F)cc2C)C1)c1ccc(OC)nc1 7.37

(Q) Returns the measured pKi for the input molecule. Input: CCN(C(=O)N1CC(Oc2cc(F)cc(F)c2C)C1)c1ccc(OC)nc1
(A) 7.44

(Q) Again, but for COc1ccc(N(C)C(=O)N2CC(Oc3cc(F)cc(F)c3C)C2)cn1
(A) 6.63

(Q) Again, but for COc1ccc(-n2c(C)nnc2N2CC(Oc3cccc(F)c3C)C2)cn1
(A) 7.71

(Q) Again, but for COc1ccc(N(C)C(=O)N2CC(Oc3ccc(F)cc3C)C2)cn1
(A) 6.95
